Reported melting point values follow for various molecules

See these solved cases before continuing.
{"molecule": "COc1cc(OC)c(/C=C/S(=O)(=O)Cc2ccc(OC)c(N)c2)c(OC)c1", "melting point": "148 to 150 °C"}
{"molecule": "Nc1cc(-c2c(-c3ccc(Cl)cc3)nc3ccc(N4CC5CNCC5C4)nn23)ccn1 (stereo not given)", "melting point": "267 to 270 °C"}
{"molecule": "Brc1ccc(-c2cc3cc(-c4ccccc4)ccc3o2)cc1", "melting point": "90 to 92 °C"}
{"molecule": "CCN(CC)CC1CCCCN1CCNC(=O)N1c2cc(Cl)ccc2C(=O)Nc2cccnc21 (stereo not given)", "melting point": "169 to 170 °C"}
{"molecule": "COc1nc(C)nc(NC(=O)NS(=O)(=O)c2ccccc2-n2nnnc2C)n1", "melting point": "207 to 209 °C"}
{"molecule": "O=C(O)CCCc1ccc(F)cc1F", "melting point": "45 to 47 °C"}
{"molecule": "COc1c([N+](=O)[O-])cc(Br)c2c1C(=CC#N)CC2", "melting point": "156 to 158 °C"}
{"molecule": "O=S(=O)(Nc1cccc(CCOCc2cccc(-c3ccccc3)n2)c1)C(F)(F)F", "melting point": "75 to 77 °C"}
{"molecule": "COC(=O)C=C1c2ccccc2C=C(OC)c2sccc21", "melting point": "124 to 125 °C"}

Now look at this entry.
I'd like to know its melting point. The molecule in question is `CC(C)(C)c1cc(=O)o[nH]1`
110 to 115 °C

###

Reported melting point values follow for various compounds

See these solved cases before continuing.
{"compound": "O=c1[nH]c(=O)n(C2OC(CO)C(O)C2O)cc1C(Cl)=CI (stereo not given)", "result_value": "109 to 111 °C"}
{"compound": "CC(C)CN1C(=O)[C@@H](CC(N)=O)O[C@H](c2ccccc2Cl)c2cc(Cl)ccc21 (relative stereo)", "result_value": "271 to 272 °C"}
{"compound": "COc1ccc(C(=O)Nc2cccnc2)c2c1oc1ccc(NC(C)=O)cc12", "result_value": "> 250 °C"}
{"compound": "COc1ccc(N2CCN(C(N)=O)C2=O)cc1OC", "result_value": "240 °C"}
{"compound": "Cn1c2c(c(=O)[nH]c1=O)CCC2", "result_value": "250 to 251 °C"}
{"compound": "COCCC1CCN(c2ccc(C#N)c3ccccc23)CC1", "result_value": "95 to 96 °C"}
{"compound": "COCOc1cc(OC)ccc1C(=O)c1ccc(OCc2nc(-c3ccccc3)oc2C)cc1", "result_value": "119 to 120 °C"}
{"compound": "CCCc1c(OCCCC#CC(=O)O)ccc(C(C)=O)c1O", "result_value": "115 to 116 °C"}
{"compound": "O=C(Cn1nnnc1-c1cc2ccccc2o1)OCCO", "result_value": "131 to 135 °C"}

Now look at this entry.
I'd like to know its melting point. The compound in question is `CCOC(=O)c1c(O)c2ccc(C)nc2n(CC)c1=O`
138 to 140 °C

###

quantity: melting point

See these solved cases before continuing.
{"compound": "C=CCOc1cc(NC(=O)OC(C)(C)C)c([N+](=O)[O-])cc1I", "result_value": "93 to 95 °C"}
{"compound": "CC(=C(F)F)c1cn(-c2c(Cl)cc(C(F)(F)F)cc2Cl)nc1C#N", "result_value": "66 to 68 °C"}
{"compound": "Cn1cnnc1C(N)(c1ccc(I)cc1)c1ccc2c(c1)c(-c1cccc(Cl)c1)nc1nnnn12 (centres undefined)", "result_value": "238 °C"}

I'd like to know its melting point. The compound in question is CC(C)(OC(=O)C1C2CCC(C2)C1C(F)(F)F)C(F)(F)F (centres undefined)
87 to 90 °C

I'd like to know its melting point. The compound in question is CC12C=CC(=O)CC1CCC1C2CCC2(C)C(C(=O)NC3(C#N)CCCC3)CCC12 (centres undefined)
262 to 269 °C

I'd like to know its melting point. The compound in question is `CCCCNC(=O)Oc1ccc2c(N3CCN(CCCC(=O)c4ccc(F)cc4)CC3)noc2c1`
137 to 141 °C

I'd like to know its melting point. The compound in question is `Fc1cc(F)c(-c2c(Cl)nc3nccn3c2N2CCCCCC2)c(F)c1`
106 to 108 °C

I'd like to know its melting point. The compound in question is `CCOc1cnc2nc(S(=O)(=O)Cl)nn2c1`
134 to 137 °C

I'd like to know its melting point. The compound in question is `Cc1nc2n(c(=O)c1CCN1CCC(C(=O)c3ccc(F)cc3)CC1)CCCS2`
165 °C
